- System: Transient receptor potential cation channel subfamily V member 1 (Homo sapiens, UniProt Q8NER1)
- Sequence (Q8NER1 whole entry): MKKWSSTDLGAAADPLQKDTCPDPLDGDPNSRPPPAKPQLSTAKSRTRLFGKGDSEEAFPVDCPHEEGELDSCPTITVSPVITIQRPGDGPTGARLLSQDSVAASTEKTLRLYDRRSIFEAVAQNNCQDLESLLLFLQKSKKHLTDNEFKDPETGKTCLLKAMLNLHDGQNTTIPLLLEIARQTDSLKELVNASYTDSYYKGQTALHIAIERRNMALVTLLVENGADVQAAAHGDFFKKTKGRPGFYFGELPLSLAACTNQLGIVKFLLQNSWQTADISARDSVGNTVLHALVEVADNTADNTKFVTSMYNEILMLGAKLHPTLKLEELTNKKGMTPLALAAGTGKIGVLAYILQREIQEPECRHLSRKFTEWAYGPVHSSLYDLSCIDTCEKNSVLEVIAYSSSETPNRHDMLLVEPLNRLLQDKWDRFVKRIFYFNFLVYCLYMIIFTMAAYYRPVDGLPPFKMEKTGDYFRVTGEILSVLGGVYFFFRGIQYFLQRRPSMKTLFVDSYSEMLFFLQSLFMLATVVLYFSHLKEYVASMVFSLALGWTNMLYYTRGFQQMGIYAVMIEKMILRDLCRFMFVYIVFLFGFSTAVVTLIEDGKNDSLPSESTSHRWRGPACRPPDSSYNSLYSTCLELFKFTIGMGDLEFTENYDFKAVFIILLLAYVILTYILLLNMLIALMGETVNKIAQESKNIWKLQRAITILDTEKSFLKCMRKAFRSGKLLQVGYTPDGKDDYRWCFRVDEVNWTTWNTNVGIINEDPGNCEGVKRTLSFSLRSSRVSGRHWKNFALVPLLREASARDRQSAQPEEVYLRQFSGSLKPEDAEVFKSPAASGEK
- Test details: Activation of human TRPV1 expressed in HEK293F cells
- Type: cell-based
Endpoint name: IC50 (nM)
Entry rule: numbers only, all in nM.

Tell me its IC50 given "O=C(Nc1cccc2cnccc12)N1CCC[C@H]1CNc1ccc(Br)cc1" as the entry.
84

###

- System: Transient receptor potential cation channel subfamily V member 1 (Homo sapiens, UniProt Q8NER1)
Endpoint name: Ki (nM)
Report the figure in nM without appending any unit label.

Could you please provide reported Ki for CC(C)(C)C(=O)OCC(CNC(=S)NCc1ccc(NS(C)(=O)=O)c(F)c1)Cc1ccccc1 (stereo unspecified) ? Thanks!
7.8

###

- Test details: Lipophilicity, […] of the compound at pH 6.5
- Assay type: physicochemical
- Assay setup: buffer
Endpoint name: logD
Lab note: jot down the number only; don't add units.

Note logD for the molecule shown: "CC(C)(C)c1ccc2c(c1)CC[C@H]2NC(=O)Nc1cccc2[nH]ncc12"
4.59

// Input: "CC(C)(O)c1ccccc1-c1ccc2[nH]c(/C=C/c3ccc(C(F)(F)F)cc3)nc2c1" . Output its logD only.
6.27

Specify logD for "CC(C)c1nc2cc(O)ccc2c(=O)n1-c1ccc(C#N)cc1" and stop.
3.45

Specify logD for "CCCc1nc(C(F)(F)F)ccc1/C=C/C(=O)N[C@H](C)c1cc(F)c(NS(C)(=O)=O)c(F)c1" and stop.
3.67

Query logD for "O=C(Nc1ccc(C(F)(F)F)cn1)N1CC=C(c2ncc([C@H](O)CO)cc2Cl)CC1"
2.11

###

- System: Transient receptor potential cation channel subfamily V member 1 (Homo sapiens)
- Test details: Antagonist activity at human recombinant TPRV1
Endpoint name: pIC50
Scale note: pIC50 = -log10(concentration in M).

Retrieve pIC50 measured for "C[C@H](NC(=O)Cn1cnc2ccc(F)c(F)c21)c1ccc(C(C)(C)C)cc1" and print it.
8.30

Look up and report measured pIC50 for this entry: "Cc1ccc(N2c3cccc(C(=O)Nc4ccc(OCC(F)(F)F)nc4)c3OC[C@@H]2CO)nc1"
6.63

###

- System: Transient receptor potential cation channel subfamily V member 1 (Homo sapiens, UniProt Q8NER1)
- Test details: Agonist activity at human TRPV1 overexpressed in HEK293 cells incubated for 1 hr by Fluo-4 AM dye based microscopic analysis
- Format: cell-based
Endpoint name: pIC50
# pIC50 = -log10(concentration in molar units)

// fetch pIC50 given entry "O=C(Nc1ccc(C(F)(F)F)cc1)N1CC=C(c2ncc([C@H](O)CO)cc2Cl)CC1"
7.47
